Every entry's value here was drawn from ChEMBL document CHEMBL6083284.

assay: Free drug concentration in synovial fluid of Sprague-Dawley rat at 250 ug, IART measured for 168 hrs by LC-MS/MS analysis; format: ADME, tissue-based; settings: in vivo, other, dose 250 µg
Listed compounds paired with reported Drug uptake(free)
metric.name: Drug uptake(free) (nM)

>>> recorded_number("NC(=O)c1cccc(-c2cc(-c3ccc(NCC(=O)N4CCS(=O)(=O)CC4)nc3O[C@H]3CC[C@@H](O)CC3)on2)n1")
221
>>> recorded_number("CN(C)C(=O)CNc1ccc(-c2cc(-c3cccc(C(N)=O)n3)no2)c(O[C@H]2CC[C@@H](O)CC2)n1")
326
>>> recorded_number("CNc1ccc(-c2cc(-c3cccc(C(N)=O)n3)no2)c(O[C@H]2CC[C@@H](O)CC2)n1")
35
>>> recorded_number("NC(=O)c1cccc(-c2cc(-c3ccc(N)nc3O[C@H]3CC[C@@H](O)CC3)on2)n1")
11
>>> recorded_number("CN1Cc2cc(-c3cc(-c4cccc(C(N)=O)c4)no3)c(O[C@H]3CC[C@@H](O)CC3)cc2C1=O")
1550

----------
assay: Inhibition of IL-6 production in human SW982 cells by Nano-Glo HiBit assay; settings: SW982, read-out: pEC50 (converted)
Listed compounds paired with reported EC50
metric.name: EC50 (nM)

>>> recorded_number("COc1ccc(-c2cc(-c3cccc(C(N)=O)n3)no2)c(O[C@H]2CC[C@@H](O)CC2)n1")
1000
>>> recorded_number("CC(=O)Nc1ccc(-c2cc(-c3cccc(C(N)=O)n3)no2)c(O[C@H]2CC[C@@H](O)CC2)n1")
1000
>>> recorded_number("CN(C)C(=O)c1ccc(-c2cc(-c3cccc(C(N)=O)c3)no2)c(O[C@H]2CC[C@@H](O)CC2)c1")
126
>>> recorded_number("CN(C)C(=O)CNc1ccc(-c2cc(-c3cccc(C(N)=O)n3)no2)c(O[C@H]2CC[C@@H](O)CC2)n1")
100

----------
assay: Terminal half life in plasma of Sprague-Dawley rat at 250 ug, IART measured for 168 hrs by LC-MS/MS analysis; format: ADME, cell-free; conditions: dose 250 µg, read-out: beta t1/2 (converted)
metric.name: half-life (h)

>>> recorded_number("CN(C)C(=O)CNc1ccc(-c2cc(-c3cccc(C(N)=O)n3)no2)c(O[C@H]2CC[C@@H](O)CC2)n1")
80
>>> recorded_number("NC(=O)c1cccc(-c2cc(-c3cccnc3O[C@H]3CC[C@@H](O)CC3)on2)n1")
7
>>> recorded_number("NC(=O)c1cccc(-c2cc(-c3ccc(N)nc3O[C@H]3CC[C@@H](O)CC3)on2)n1")
21
>>> recorded_number("CN1Cc2cc(-c3cc(-c4cccc(C(N)=O)c4)no3)c(O[C@H]3CC[C@@H](O)CC3)cc2C1=O")
93
>>> recorded_number("CC(=O)Nc1ccc(-c2cc(-c3cccc(C(N)=O)n3)no2)c(O[C@H]2CC[C@@H](O)CC2)n1")
11
>>> recorded_number("CNc1ccc(-c2cc(-c3cccc(C(N)=O)n3)no2)c(O[C@H]2CC[C@@H](O)CC2)n1")
168

----------
test: Lipophilicity, logD of compound; type: physicochemical; details: octanol/water
metric.name: logD

>>> result("CC(C)CC(=O)Nc1cncc(-c2ccc3[nH]nc(-c4nc5c(-c6cccc(F)c6)cncc5[nH]4)c3c2)c1 [LORECIVIVINT]")
"> 4.7"
